// values below are reported log10 IC50
Target: Vitronectin Receptor (αvβ3) (Homo sapiens, UniProt P05106+P06756)
Construct: Human vitronection receptor (VnR) is purified from human placenta
Sequence (P06756 31-889 limits assumed): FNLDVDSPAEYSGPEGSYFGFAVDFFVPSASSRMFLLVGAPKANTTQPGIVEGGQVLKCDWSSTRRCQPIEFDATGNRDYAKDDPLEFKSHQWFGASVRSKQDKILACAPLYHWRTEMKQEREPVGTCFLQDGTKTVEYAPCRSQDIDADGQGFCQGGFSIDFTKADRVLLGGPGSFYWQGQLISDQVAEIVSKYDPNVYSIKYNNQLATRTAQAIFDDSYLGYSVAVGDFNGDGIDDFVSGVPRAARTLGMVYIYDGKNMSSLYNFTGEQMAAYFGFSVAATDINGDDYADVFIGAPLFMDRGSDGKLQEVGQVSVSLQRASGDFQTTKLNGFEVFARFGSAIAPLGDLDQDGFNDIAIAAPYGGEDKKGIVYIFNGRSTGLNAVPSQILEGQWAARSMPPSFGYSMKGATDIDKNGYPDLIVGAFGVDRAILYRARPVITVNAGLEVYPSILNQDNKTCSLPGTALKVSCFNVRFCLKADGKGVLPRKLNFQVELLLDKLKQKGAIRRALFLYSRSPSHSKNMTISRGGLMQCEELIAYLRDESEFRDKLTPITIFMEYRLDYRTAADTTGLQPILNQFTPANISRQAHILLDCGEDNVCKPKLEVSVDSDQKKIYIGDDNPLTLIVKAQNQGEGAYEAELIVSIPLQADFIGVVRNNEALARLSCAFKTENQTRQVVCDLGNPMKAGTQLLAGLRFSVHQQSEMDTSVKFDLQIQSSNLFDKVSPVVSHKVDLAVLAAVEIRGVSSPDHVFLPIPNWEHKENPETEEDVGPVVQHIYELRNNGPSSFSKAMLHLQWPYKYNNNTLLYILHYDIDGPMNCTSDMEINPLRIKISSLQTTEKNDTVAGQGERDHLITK
Sequence (P06756 891-1048 partner limits assumed): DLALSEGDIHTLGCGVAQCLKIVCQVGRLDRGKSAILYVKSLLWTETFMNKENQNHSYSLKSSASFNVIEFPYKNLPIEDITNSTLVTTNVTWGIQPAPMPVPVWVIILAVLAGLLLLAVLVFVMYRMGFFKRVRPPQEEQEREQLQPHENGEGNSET
Sequence (P05106 27-788): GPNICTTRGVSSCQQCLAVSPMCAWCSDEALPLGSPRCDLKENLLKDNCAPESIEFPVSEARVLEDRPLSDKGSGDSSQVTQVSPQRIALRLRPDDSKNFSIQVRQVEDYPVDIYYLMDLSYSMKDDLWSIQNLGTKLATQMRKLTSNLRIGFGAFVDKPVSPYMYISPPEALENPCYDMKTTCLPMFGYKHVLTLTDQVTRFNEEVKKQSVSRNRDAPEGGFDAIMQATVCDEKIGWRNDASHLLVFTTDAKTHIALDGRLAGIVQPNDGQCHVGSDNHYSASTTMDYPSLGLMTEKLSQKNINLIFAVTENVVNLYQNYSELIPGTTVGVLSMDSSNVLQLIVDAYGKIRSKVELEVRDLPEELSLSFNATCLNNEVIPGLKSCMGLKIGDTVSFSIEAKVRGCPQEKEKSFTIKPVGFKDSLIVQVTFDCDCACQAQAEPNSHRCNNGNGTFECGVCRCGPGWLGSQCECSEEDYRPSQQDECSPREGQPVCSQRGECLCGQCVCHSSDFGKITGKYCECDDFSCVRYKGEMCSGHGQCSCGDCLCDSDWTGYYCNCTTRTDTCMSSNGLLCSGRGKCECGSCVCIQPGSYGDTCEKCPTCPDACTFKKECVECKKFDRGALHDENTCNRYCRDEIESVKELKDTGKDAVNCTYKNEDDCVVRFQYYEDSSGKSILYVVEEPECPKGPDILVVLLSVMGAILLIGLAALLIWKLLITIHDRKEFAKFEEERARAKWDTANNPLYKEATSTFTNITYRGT
Assay: Human Vitronectin-Vitronectin Receptor (αvβ3) ELISA Assay
Details: purified human αvβ3, vitronectin-coated plates; read-out: ELISA IC50 Vitronectin VnR
Where a SMILES comes first, the peptide text is derived from it. Bridges are numbered along the chain shown (N, C = ends). [ ]: non-standard residue; d: D form. The star is where a group is joined. Pen = CC(C)(S)[C@H](N)C(=O)O; dOrn = NCCC[C@@H](N)C(=O)O; Orn = NCCC[C@H](N)C(=O)O; NH(CH2)4NH2 = NCCCCN*; NH(CH2)3NH2 = NCCCN*
Record value = log10 of IC50 given in nM.

In the examples that follow, each entry is paired with its recorded log10 IC50.
[[record]]
compound = "N=C(N)NCCC[C@@H]1NC(=O)[C@@H](Cc2ccc(O)cc2)NC(=O)CSC[C@@H](C(=O)N[C@H](CCCN)C(N)=O)NC(=O)[C@H](CC(=O)O)NC(=O)CNC1=O [7/6] ({CH2CO}-[dY]RGDC[dOrn]-NH2; thioether N-5)"
experimental_system = "Vitronectin Receptor (αvβ3) (Homo sapiens, UniProt P05106+P06756)"
recorded_number = 1.74

[[record]]
compound = "N=C(N)NCCC[C@@H]1NC(=O)[C@@H](Cc2ccc(O)cc2)NC(=O)CSC[C@@H](C(=O)N[C@@H](CCC(N)=O)C(N)=O)NC(=O)[C@H](CC(=O)O)NC(=O)CNC1=O [7/27] ({CH2CO}-[dY]RGDCQ-NH2; thioether N-5)"
experimental_system = "Vitronectin Receptor (αvβ3) (Homo sapiens, UniProt P05106+P06756)"
recorded_number = 1.69

[[record]]
compound = "N=C(N)NCCC[C@@H]1NC(=O)[C@@H](Cc2ccc(O)cc2)NC(=O)CSC[C@@H](C(=O)N[C@@H](CCCN)C(N)=O)NC(=O)[C@H](CC(=O)O)NC(=O)CNC1=O [7/5] ({CH2CO}-[dY]RGDC[Orn]-NH2; thioether N-5)"
experimental_system = "Vitronectin Receptor (αvβ3) (Homo sapiens, UniProt P05106+P06756)"
recorded_number = 1.65

[[record]]
compound = "N=C(N)NCCC[C@@H]1NC(=O)[C@@H](Cc2ccc(O)cc2)NC(=O)CSC[C@@H](C(=O)NCCCN)NC(=O)[C@H](CC(=O)O)NC(=O)CNC1=O [8/22] ({CH2CO}-[dY]RGDC-{NH(CH2)3NH2}; thioether N-5)"
experimental_system = "Vitronectin Receptor (αvβ3) (Homo sapiens, UniProt P05106+P06756)"
recorded_number = 1.56

[[record]]
compound = "CC1(C)SCC(=O)N[C@H](Cc2ccc(O)cc2)C(=O)N[C@@H](CCCCN)C(=O)NCC(=O)N[C@@H](CC(=O)O)C(=O)N[C@@H]1C(=O)N[C@@H](CCCCN)C(N)=O [7/17] ({CH2CO}-[dY]KGD[Pen]K-NH2; thioether N-5)"
experimental_system = "Vitronectin Receptor (αvβ3) (Homo sapiens, UniProt P05106+P06756)"
recorded_number = 5.00

[[record]]
compound = "N=C(N)NCCC[C@@H]1NC(=O)[C@@H](Cc2ccc(O)cc2)NC(=O)CSC[C@@H](C(=O)NCCCCN)NC(=O)[C@H](CC(=O)O)NC(=O)CNC1=O [8/12] ({CH2CO}-[dY]RGDC-{NH(CH2)4NH2}; thioether N-5)"
experimental_system = "Vitronectin Receptor (αvβ3) (Homo sapiens, UniProt P05106+P06756)"
recorded_number = 1.85

[[record]]
compound = "N=C(N)NCCC[C@@H]1NC(=O)[C@@H](Cc2ccc(O)cc2)NC(=O)CSC[C@@H](C(=O)N[C@@H](CCCCN)C(N)=O)NC(=O)[C@H](CC(=O)O)NC(=O)CNC1=O [7/3] ({CH2CO}-[dY]RGDCK-NH2; thioether N-5)"
experimental_system = "Vitronectin Receptor (αvβ3) (Homo sapiens, UniProt P05106+P06756)"
recorded_number = 1.78


## Input # returns recorded log10 IC50 (system: Vitronectin Receptor (αvβ3) (Homo sapiens, UniProt P05106+P06756)) for N=C(N)NCCC[C@H](NC(=O)[C@H](Cc1ccc(O)cc1)NC(=O)[C@@H]1CSCC(=O)N[C@H](Cc2ccc(O)cc2)C(=O)N[C@@H](CCCNC(=N)N)C(=O)NCC(=O)N[C@@H](CC(=O)O)C(=O)N1)C(N)=O [7/7] ({CH2CO}-[dY]RGDCYR-NH2; thioether N-5)
## Output 1.71

Reference for the values: patent US5493007A
